Source of measurements: patent US5763450A

Counter-ions that a name gives are not always drawn.
// purified DHFR of the opportunistic pathogen P. carinii (Pneumocystis carinii) IC50 records
Write your answer as a measured quantity: the number, then the unit.

Past entries and their recorded results:
COc1cc(Cc2cnc(N)nc2N)cc(C=Cc2ccc3ccccc3c2)c1OC [Example 10b]    4 µM
COc1cc(Cc2cnc(N)nc2N)cc(-c2cc3c(cc2F)c(=O)c(C(=O)O)cn3C2CC2)c1OC [Example 9a, trifluoroacetate]    0.019 µM
COc1cc(Cc2cnc(N)nc2N)cc(-c2ccc(C(=O)O)cc2)c1OC [Example 5c, hydrochloride]    0.48 µM

# context switch: different molecule, same IC50
(Q) Give IC50 for this entry on purified DHFR of the opportunistic pathogen P. carinii (Pneumocystis carinii): COc1cc(Cc2cnc(N)nc2N)cc(-c2cccc(O)c2)c1OC
Sequence (P16184 whole entry): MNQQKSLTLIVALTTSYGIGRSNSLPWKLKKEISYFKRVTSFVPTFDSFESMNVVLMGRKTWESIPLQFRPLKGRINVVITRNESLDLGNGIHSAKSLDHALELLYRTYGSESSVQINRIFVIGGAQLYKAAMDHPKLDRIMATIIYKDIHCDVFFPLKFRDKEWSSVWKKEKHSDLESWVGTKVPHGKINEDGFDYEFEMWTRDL
(A) 2.3 µM

----------
assayed_system: purified DHFR of the reference strain S. aureus ATCC 25923 (Staphylococcus aureus, UniProt P0A017)
Sequence (P0A017 whole entry): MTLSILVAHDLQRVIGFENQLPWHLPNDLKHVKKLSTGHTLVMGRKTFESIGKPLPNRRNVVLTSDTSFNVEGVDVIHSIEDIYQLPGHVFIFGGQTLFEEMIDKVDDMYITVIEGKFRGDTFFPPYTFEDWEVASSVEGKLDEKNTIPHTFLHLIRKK
protocol_details: Inhibition of purified DHFR of reference strain S. aureus ATCC 25923
Structures can show the parent of a compound that is named as a salt.
The following compounds are listed with their measured pIC50 values.
Hey, just a heads up that pIC50 is the negative log base 10 of the concentration in molar.

Consider the worked cases shown below.
COc1cc(Cc2cnc(N)nc2N)cc(C#Cc2cc3c(cc2F)c(=O)c(C(=O)O)cn3C2CC2)c1OC [Example 16e, trifluoroacetate]    8.54
COc1cc(Cc2cnc(N)nc2N)cc(C#Cc2ccc3ccccc3c2)c1OC [Example 15a]    7.82
COc1cc(Cc2cnc(N)nc2N)cc(-c2ccc3cc(O)ccc3c2)c1OC [Example 5h]    8.89
COc1cc(Cc2cnc(N)nc2N)cc(-c2cccc(O)c2)c1OC [Example 5b]    8.40
COc1cc(Cc2cnc(N)nc2N)cc(-c2ccc(C(=O)O)cc2)c1OC [Example 5c, hydrochloride]    9.05

(Q) For the compound COc1cc(Cc2cnc(N)nc2N)cc(C#Cc2c(F)cc3c(=O)c(C(=O)O)cn(C4CC4)c3c2F)c1OC [Example 16c, hydrochloride] , give its measured pIC50 value.
(A) 8.92

(Q) Please indicate pIC50 recorded for CCn1cc(C(=O)O)c(=O)c2cc(F)c(C#Cc3cc(Cc4cnc(N)nc4N)cc(OC)c3OC)cc21 [Example 16f, hydrochloride]
(A) 8.82
